Tested on: Rattus norvegicus
Experiment: Antinociceptive activity in sc dosed Sprague-Dawley rat assessed as thermal-stimulus induced tail flick latency after 1 hrs
Assay type: functional
Could you please mark fulfilled for values of ED50 below 0.09 µmol/kg and not fulfilled for values at or above it?

                                   molecule    group_label
0  CC(C)(C)OC(=O)CN[C@@H]1CC[C@@]2(OCCCc3ccccc3)[C@H]3Cc4ccc(O)c5c4[C@@]2(CCN3CC2CC2)[C@H]1O5      fulfilled
1  Cl.Cl.O=C(O)CN[C@@H]1CC[C@@]2(OCCCc3ccccc3)[C@H]3Cc4ccc(O)c5c4[C@@]2(CCN3CC2CC2)[C@H]1O5  not fulfilled
2  Cl.Cl.O=C(O)CN[C@H]1CC[C@@]2(OCCCc3ccccc3)[C@H]3Cc4ccc(O)c5c4[C@@]2(CCN3CC2CC2)[C@H]1O5  not fulfilled
3  CN1CC[C@]23c4c5ccc(O)c4O[C@H]2[C@@H](O)C=C[C@H]3[C@H]1C5  not fulfilled
4  CC(C)(C)OC(=O)CN[C@H]1CC[C@@]2(OCCCc3ccccc3)[C@H]3Cc4ccc(O)c5c4[C@@]2(CCN3CC2CC2)[C@H]1O5  not fulfilled
5  CN1CC[C@]23c4c5ccc(O)c4O[C@H]2[C@@H](NCC(=O)OC(C)(C)C)CC[C@@]3(OCCCc2ccccc2)[C@H]1C5      fulfilled
6  CO[C@@]12CC[C@H](NCC(=O)O)[C@@H]3Oc4c(O)ccc5c4[C@@]31CCN(C)[C@@H]2C5      fulfilled
7  CO[C@@]12CC[C@@H](NCC(=O)O)[C@@H]3Oc4c(O)ccc5c4[C@@]31CCN(C)[C@@H]2C5      fulfilled

---

Target: UniProt:P33535
Assay: Displacement of [3H]DAMGO from mu opioid receptor in Sprague-Dawley rat brain membrane by liquid scintillation counting
Type: cell membranes
VALUE_KIND: Ki

>>> print(df.to_string())
                                   molecule  value_kind  measured_result
0  CN1CC[C@]23c4c5ccc(O)c4O[C@H]2[C@H](NCC(=O)OC(C)(C)C)CC[C@@]3(OCCCc2ccccc2)[C@H]1C5          Ki          1.03 nM
1  CC(C)(C)OC(=O)CN[C@H]1CC[C@@]2(OCCCc3ccccc3)[C@H]3Cc4ccc(O)c5c4[C@@]2(CCN3CC2CC2)[C@H]1O5          Ki          1.38 nM
2  Cl.Cl.O=C(O)CN[C@H]1CC[C@@]2(OCCCc3ccccc3)[C@H]3Cc4ccc(O)c5c4[C@@]2(CCN3CC2CC2)[C@H]1O5          Ki          0.27 nM

---

Observed Ki, system Mu-type opioid receptor (Rattus norvegicus).
VALUE_KIND: Ki (nM)

>>> print(df.to_string())
                                   molecule  value_kind  measured_result
0  CN1CC[C@]23c4c5ccc(O)c4O[C@H]2[C@@H](NCC(=O)OC(C)(C)C)CC[C@@]3(OCCCc2ccccc2)[C@H]1C5          Ki              1.4
1  Cl.Cl.O=C(O)CN[C@@H]1CC[C@@]2(OCCCc3ccccc3)[C@H]3Cc4ccc(O)c5c4[C@@]2(CCN3CC2CC2)[C@H]1O5          Ki              0.2
2  CC(C)(C)OC(=O)CN[C@@H]1CC[C@@]2(OCCCc3ccccc3)[C@H]3Cc4ccc(O)c5c4[C@@]2(CCN3CC2CC2)[C@H]1O5          Ki             1.01
